Attribution: PubChem BioAssay (Tox21)

Assay: A CellTox Green Cytotoxicity Assay to monitor cytotoxicity in HEK293 cells - 32 hour (AID 1224881); further: nearly all actives have a fitted effect of over 40% in size
Conditions: CellTox Green fluorescence; series mostly up to 76.8 µM
From the text: National Center for Advancing Translational Sciences [NCATS] NIH Chemical Genomics Center [NCGC] U.S. Environmental Protection Agency [EPA] National Institutes of Environmental Health Sciences [NIEHS] National Toxicology Program [NTP] Cell-based models are critical for drug discovery. […] Viable cells produce no appreciable increases in fluorescence. Therefore, the fluorescence signal produced by the binding interaction with dead cell DNA is proportional to cytotoxicity. […]
Inconclusive results are not listed. Activity calls are given as the source filed them. The call rests on the fitted dose curve; in most records, active means well fitted activation curve with a large enough effect in the repeat runs; inconclusive means weak or mixed curves; inactive means flat fitted curve, though single readings scatter.
Classes used: active, inactive

{"compound": "CN1CCc2cc3c(cc2C1O)OCO3 (stereo not drawn)", "cat": "inactive"}
{"compound": "CCCCN(CCCC)C(=S)S", "cat": "inactive"}
{"compound": "C#CC1(O)CCCCC1", "cat": "inactive"}
{"compound": "CC(=O)[O][Pb]([c]1ccccc1)([c]1ccccc1)[c]1ccccc1", "cat": "active"}
{"compound": "O=C(NC(=O)c1c(F)cccc1F)Nc1ccc(Oc2ccc(C(F)(F)F)cc2Cl)cc1F", "cat": "inactive"}
{"compound": "O=Cc1ccccc1", "cat": "inactive"}
{"compound": "CCN(CC)Cc1nccn1-c1ccc([N+](=O)[O-])cc1C(=O)c1ccccc1Cl", "cat": "inactive"}
{"compound": "CC(C)=CCN1CC[C@@]2(C)c3cc(O)ccc3C[C@@H]1[C@@H]2C", "cat": "inactive"}
{"compound": "Nc1cc(Cl)ccc1Cl", "cat": "inactive"}
{"compound": "[C-]1=CC=CC1.[Cl][Zr+2][Cl].c1cc[cH-]c1", "cat": "inactive"}
{"compound": "Cc1cnc2c(C(=O)O)c(Cl)ccc2c1", "cat": "inactive"}
{"compound": "N#CC(C#N)=NNc1cccc(Cl)c1", "cat": "inactive"}
{"compound": "C=CC(=O)[O][Sn]([CH2]CCC)([CH2]CCC)[CH2]CCC", "cat": "active"}
